The reported measurements were obtained from ChEMBL document CHEMBL1139698.

# Species on record: Homo sapiens
# assay-protocol: Selectivity for MMP13 over MMP8
Listed here: items and their measured Selectivity ratio.
Field format: numeric only.

Below are worked cases with known answers.
CCOCCC1(Oc2ccc(Oc3ccc(C(=O)Nc4ccccc4)cc3)cc2)C(=O)NC(=O)NC1=O = 200
COCCC1(Oc2ccc(Oc3ccc(-c4nc(-c5cccc(C#N)c5)co4)cc3)cc2)C(=O)NC(=O)NC1=O = 140
COCCC1(Oc2ccc(Oc3ccc(-c4nc(-c5ccc(C#N)cc5)co4)cc3)cc2)C(=O)NC(=O)NC1=O = 394

# input compound: CCOCCC1(Oc2ccc(Oc3ccc(-c4nc(-c5cccc(C#N)c5)co4)cc3)cc2)C(=O)NC(=O)NC1=O ; wanted: its Selectivity ratio
155

# input compound: CCOCCC1(Oc2ccc(Oc3ccc(C(=O)NCc4ccccc4F)cc3)cc2)C(=O)NC(=O)NC1=O ; wanted: its Selectivity ratio
27

# input compound: COCCC1(Oc2ccc(Oc3ccc(-c4nc(-c5ccc(F)cc5)co4)cc3)cc2)C(=O)NC(=O)NC1=O ; wanted: its Selectivity ratio
338

# input compound: CCOCCC1(Oc2ccc(Oc3ccc(-c4nc(-c5cccnc5)co4)cc3)cc2)C(=O)NC(=O)NC1=O ; wanted: its Selectivity ratio
265

# input compound: CCOCCC1(Oc2ccc(Oc3ccc(-c4nc(-c5ccccn5)co4)cc3)cc2)C(=O)NC(=O)NC1=O ; wanted: its Selectivity ratio
57

# input compound: CCOCCC1(Oc2ccc(Oc3ccc(C(=O)Nc4cccnc4)cc3)cc2)C(=O)NC(=O)NC1=O ; wanted: its Selectivity ratio
120

# input compound: CCOCCC1(Oc2ccc(Oc3ccc(-c4nc(-c5cccc(F)c5)no4)cc3)cc2)C(=O)NC(=O)NC1=O ; wanted: its Selectivity ratio
95

* * *

# Species on record: Homo sapiens
# assay-protocol: Selectivity for MMP13 over MMP2
# binarize Selectivity ratio: threshold 60 inclusive, high side true (1), low side false (0)

// known answers, use as guide
CCOCCC1(Oc2ccc(Oc3ccc(-c4nc(-c5cccnc5)no4)cc3)cc2)C(=O)NC(=O)NC1=O = true (1)
CCOCCC1(Oc2ccc(Oc3ccc(-c4nc(-c5ccccc5)co4)cc3)cc2)C(=O)NC(=O)NC1=O = false (0)
COCCC1(Oc2ccc(Oc3ccc(-c4nc(-c5cccc(F)c5)co4)cc3)cc2)C(=O)NC(=O)NC1=O = true (1)
CCOCCC1(Oc2ccc(Oc3ccc(-c4nc(-c5cccc(C#N)c5)co4)cc3)cc2)C(=O)NC(=O)NC1=O = false (0)
CCOCCC1(Oc2ccc(Oc3ccc(-c4noc(-c5ccccc5)n4)cc3)cc2)C(=O)NC(=O)NC1=O = false (0)
CCOCCC1(Oc2ccc(Oc3ccc(-c4nc(-c5cccnc5)co4)cc3)cc2)C(=O)NC(=O)NC1=O = false (0)
CCOCCC1(Oc2ccc(Oc3ccc(C(=O)NCc4ccccc4F)cc3)cc2)C(=O)NC(=O)NC1=O = false (0)

Shift focus to the following entry.
Please tell me: is the molecule CCOCCC1(Oc2ccc(Oc3ccc(-c4nc(-c5ccccc5F)co4)cc3)cc2)C(=O)NC(=O)NC1=O at or over 60 in terms of Selectivity ratio?
true (1)
